# Test system: LOX IMVI melanoma
# protocol-notes: NCI tumour cell line growth inhibition, 48 h
// values below are reported TGI

O=C(/C=C\c1ccc(/C=C/C(=O)Nc2cccc(C3=NCCCN3)c2)cc1)Nc1cccc(C2=NCCCN2)c1 : > 100 µM

Bench note: what TGI did Nc1ncnc2c1N=C(c1ccccc1)CC(c1ccccc1)N2 (stereo not drawn) show?
> 100 µM

Bench note: what TGI did "CCc1ccc(C2=NN(c3ccc(S(C)(=O)=O)cc3)C(=O)CC2)cc1" show?
> 100 µM

---

# Test system: NCI-H460 lung
# protocol-notes: NCI tumour cell line growth inhibition, 48 h
experimental-endpoint: TGI

CCOC(=O)[C@@H]1C[C@@H]1c1ccc(O)c(O)c1 : > 100 µM
CCOC(=O)n1c2ccccc2c(=O)n1CCO : > 100 µM
Cc1ccc(C=C(C(=O)O)C(=O)O)o1 : > 100 µM
COc1cccc(/C=C2/S/C(=N/Nc3nc(C)c(C(C)=O)s3)NC2=O)c1O : > 100 µM

Now for another entry.
Field: TGI (NCI-H460 lung). Entry: COCCOCCOCCC(=O)NC1CC2CCC1(C)C2(C)C (stereo not given)
> 100 µM

---

# System: RXF 393 renal
# protocol-notes: NCI tumour cell line growth inhibition, 48 h
// values below are reported TGI

For orientation, consider the following solved cases.
CON(C)C(=O)C(C)NC(=O)OC(C)(C)C (stereo not given) : > 100 µM
O=C(Nc1ccc(Br)cc1)Nc1cccc(Br)c1 : > 100 µM

Field: TGI (RXF 393 renal). Entry: "O=C(O)C1=C(C(=O)O)Oc2ccccc2O1"
> 100 µM

Field: TGI (RXF 393 renal). Entry: N#Cc1cccc(C2C3=C(COC3=O)N(CCO)c3cc4c(cc32)CCC4)c1 (stereo not given)
> 50 µM

Field: TGI (RXF 393 renal). Entry: "C/C(CC(=O)Nc1cccc(Cl)c1C)=N\N=C(N)N"
> 100 µM

---

# System: SN12C renal
# protocol-notes: NCI tumour cell line growth inhibition, 48 h
Each entry gets no (0) if its TGI stays under 30 µM, and yes (1) if its TGI is 30 µM or above.

// known answers, use as guide
Nc1ncc(Sc2ccccc2C(=O)O)s1 : yes (1)
Nc1ccn([C@@H]2S[C@H](CO)[C@@H](O)[C@@H]2F)c(=O)n1 : yes (1)
Cc1cc(/N=C/c2ccc(Cl)cc2)n(-c2ccccc2)n1 : yes (1)
NC(N)=N/N=C\c1c(-c2ccccc2)nc2sccn12 : no (0)
CC1=NN(c2nc(N)nc(/C=C\c3ccccc3)n2)C(C)(C)C1 : no (0)
Cc1ccc(C(=O)N2C/C(=C/c3ccccc3)C(=O)/C(=C/c3ccccc3)C2)cc1 : yes (1)

Hello, I need to know if "Cn1c(=O)c(C(=O)NC23CC4CC(CC(C4)C2)C3)c(O)c2ccccc21" has measured TGI not below 30 µM. Thanks!
yes (1)

---

// values below are reported TGI
# Test system: SR leukemia
# protocol-notes: NCI tumour cell line growth inhibition, 48 h

For orientation, consider the following solved cases.
Cc1cc(OC(=O)Nc2ccc(Cl)cc2)ccc1C(=S)Nc1ccccc1 : > 100 µM
C=CC[PH+](c1ccccc1)c1ccccc1.C=CC[PH+](c1ccccc1)c1ccccc1.[Pt+2].[S-]c1ncccn1.[S-]c1ncccn1 : 60.7 µM
c1csc(C(NC2=NCCO2)C2CC2)c1 (stereo unspecified) : > 100 µM
O=C(O)C1=C(C(=O)O)Oc2ccccc2O1 : > 100 µM
N#C[C@H](C(=O)c1ccccc1F)c1nc2ccccc2[nH]1 : > 100 µM

Bench note: what TGI did COC(=O)[C@]1(C)CCCC2(C)C3=C(CCC21)CC1(CC3)SCCS1 (stereo partly specified) show?
> 10 µM

Bench note: what TGI did "O=S(=O)(NCCCNc1nccc(-c2c(-c3cccc(F)c3)nc3occn23)n1)c1cccc2ccccc12" show?
> 100 µM

Bench note: what TGI did CC(=O)OC1CC[C@@]2(C)C(=CC[C@@H]3[C@@H]2CC[C@]2(C)C(OC(C)=O)[C@H](n4ccnc4)C[C@@H]32)C1 (stereo partly specified) show?
36.7 µM
